B1: ZNF449 (parent)
chain: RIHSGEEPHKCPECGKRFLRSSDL

- Variants of: B1
- Assay remarks: protein stability index of a GFP-peptide fusion (GPS, HEK-293T) (PSI 1-6); higher = more stable;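 also: lentivirally expressed fusions sorted by FACS into six bins by GFP to DsRed ratio, PSI derived from sequencing read proportions per bin multiplied by bin number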
- Condition set: c terminus: a fixed tail appended
Property: protein stability index

[ask] Please report the recorded protein stability index for L24K .
[reply] 3.96

[ask] Please report the recorded protein stability index for F18V .
[reply] 2.92

[ask] Please report the recorded protein stability index for I2L .
[reply] 3.77

[ask] Please report the recorded protein stability index for K16M .
[reply] 2.61

[ask] Please report the recorded protein stability index for G15C .
[reply] 3.28

[ask] Please report the recorded protein stability index for G15S .
[reply] 3.76

[ask] Please report the recorded protein stability index for P8Y .
[reply] 3.57

[ask] Please report the recorded protein stability index for R20V .
[reply] 2.27

[ask] Please report the recorded protein stability index for S22L .
[reply] 2.67

[ask] Please report the recorded protein stability index for S4Y .
[reply] 2.84

[ask] Please report the recorded protein stability index for E7F .
[reply] 2.98

[ask] Please report the recorded protein stability index for C11F .
[reply] 3.54

[ask] Please report the recorded protein stability index for S22E .
[reply] 3.62

[ask] Please report the recorded protein stability index for R20S .
[reply] 3.82

[ask] Please report the recorded protein stability index for C11M .
[reply] 4.35

[ask] Please report the recorded protein stability index for C14S .
[reply] 4.77

[ask] Please report the recorded protein stability index for L24A .
[reply] 3.92

[ask] Please report the recorded protein stability index for D23I .
[reply] 1.61

[ask] Please report the recorded protein stability index for H9I .
[reply] 4.09

[ask] Please report the recorded protein stability index for K10H .
[reply] 2.95

[ask] Please report the recorded protein stability index for G5V .
[reply] 3.07

[ask] Please report the recorded protein stability index for E13C .
[reply] 3.71

[ask] Please report the recorded protein stability index for I2P .
[reply] 3.57

[ask] Please report the recorded protein stability index for R17G .
[reply] 3.12

[ask] Please report the recorded protein stability index for E13S .
[reply] 3.63

[ask] Please report the recorded protein stability index for H3M .
[reply] 3.05

[ask] Please report the recorded protein stability index for E13Q .
[reply] 2.13

[ask] Please report the recorded protein stability index for C14K .
[reply] 3.87

[ask] Please report the recorded protein stability index for R1M .
[reply] 3.4

[ask] Please report the recorded protein stability index for G15W .
[reply] 2.87

[ask] Please report the recorded protein stability index for R1G .
[reply] 3.74

[ask] Please report the recorded protein stability index for D23F .
[reply] 2.04

[ask] Please report the recorded protein stability index for L24N .
[reply] 3.89

[ask] Please report the recorded protein stability index for C14Y .
[reply] 3.6

[ask] Please report the recorded protein stability index for R17E .
[reply] 4.2

[ask] Please report the recorded protein stability index for S4F .
[reply] 2.3

[ask] Please report the recorded protein stability index for P12G .
[reply] 3.08

[ask] Please report the recorded protein stability index for R20E .
[reply] 3.91

[ask] Please report the recorded protein stability index for R20F .
[reply] 3.35

[ask] Please report the recorded protein stability index for G5M .
[reply] 3.75

[ask] Please report the recorded protein stability index for L24T .
[reply] 3.79

[ask] Please report the recorded protein stability index for H9T .
[reply] 3.44

[ask] Please report the recorded protein stability index for S4T .
[reply] 3.53

[ask] Please report the recorded protein stability index for R1S .
[reply] 3.86

[ask] Please report the recorded protein stability index for I2M .
[reply] 3.48

[ask] Please report the recorded protein stability index for I2V .
[reply] 3.98

[ask] Please report the recorded protein stability index for S22R .
[reply] 3.02

[ask] Please report the recorded protein stability index for D23R .
[reply] 1.51

[ask] Please report the recorded protein stability index for E6R .
[reply] 3.24

[ask] Please report the recorded protein stability index for D23N .
[reply] 2.8

[ask] Please report the recorded protein stability index for R20W .
[reply] 2.31

[ask] Please report the recorded protein stability index for R17F .
[reply] 3.2

[ask] Please report the recorded protein stability index for H3F .
[reply] 2.63

[ask] Please report the recorded protein stability index for L19R .
[reply] 3.74

[ask] Please report the recorded protein stability index for F18Q .
[reply] 3.58

[ask] Please report the recorded protein stability index for E7G .
[reply] 2.81

[ask] Please report the recorded protein stability index for R1V .
[reply] 3.05

[ask] Please report the recorded protein stability index for P12F .
[reply] 3.29

[ask] Please report the recorded protein stability index for S22D .
[reply] 4.06

[ask] Please report the recorded protein stability index for E13W .
[reply] 3.86

[ask] Please report the recorded protein stability index for L19W .
[reply] 3.09

[ask] Please report the recorded protein stability index for L19C .
[reply] 4.48

[ask] Please report the recorded protein stability index for E6I .
[reply] 3.09

[ask] Please report the recorded protein stability index for F18S .
[reply] 3.29

[ask] Please report the recorded protein stability index for K16C .
[reply] 3.32

[ask] Please report the recorded protein stability index for I2Q .
[reply] 3.91

[ask] Please report the recorded protein stability index for R17D .
[reply] 3.71

[ask] Please report the recorded protein stability index for P8H .
[reply] 3.18

[ask] Please report the recorded protein stability index for F18T .
[reply] 3.75

[ask] Please report the recorded protein stability index for G15M .
[reply] 3.88

[ask] Please report the recorded protein stability index for G15P .
[reply] 4.37

[ask] Please report the recorded protein stability index for D23T .
[reply] 2.7

[ask] Please report the recorded protein stability index for C14E .
[reply] 5.1

[ask] Please report the recorded protein stability index for R1H .
[reply] 4.07

[ask] Please report the recorded protein stability index for I2D .
[reply] 4.06

[ask] Please report the recorded protein stability index for I2T .
[reply] 4.76

[ask] Please report the recorded protein stability index for S21A .
[reply] 3.31

[ask] Please report the recorded protein stability index for P8I .
[reply] 4.26

[ask] Please report the recorded protein stability index for R20C .
[reply] 3.88

[ask] Please report the recorded protein stability index for H9R .
[reply] 3.18

[ask] Please report the recorded protein stability index for K16E .
[reply] 3.99
